system: HT1080 tumors; test: Human fibrosarcoma xenograft, total diameter (tumor + leg); details: Day 21
Give Total diameter (tumor + leg) for every item shown.
Report the figure in mm without appending any unit label.

Please fill in: Total diameter (tumor + leg) reported for COc1c(C)cc2c(c1O)[C@@H]1[C@@H]3[C@@H]4SC[C@]5(N[C@H](C)Cc6c5[nH]c5ccccc65)C(=O)OC[C@@H](c5c6c(c(C)c(OC(C)=O)c54)OCO6)N3[C@@H](O)[C@H](C2)N1C = 15.2

For record COc1c(C)cc2c(c1O)[C@@H]1[C@@H]3[C@@H]4SC[C@]5(N[C@@H](CN)Cc6c5[nH]c5ccccc65)C(=O)OC[C@@H](c5c6c(c(C)c(OC(C)=O)c54)OCO6)N3[C@@H](O)[C@H](C2)N1C the listed Total diameter (tumor + leg) is 15.5

The compound identified as COc1ccc2[nH]c3c(c2c1)CCN[C@]31CS[C@@H]2c3c(OC(C)=O)c(C)c4c(c3[C@H](COC1=O)N1[C@@H]2[C@H]2c3c(cc(C)c(OC)c3O)C[C@@H]([C@@H]1O)N2C)OCO4 [PM01183, reference compound] registered its Total diameter (tumor + leg) at 18.0

Measured Total diameter (tumor + leg), COc1c(C)cc2c(c1O)[C@@H]1[C@@H]3[C@@H]4SC[C@]5(N[C@@H](C)Cc6c5[nH]c5ccccc65)C(=O)OC[C@@H](c5c6c(c(C)c(OC(C)=O)c54)OCO6)N3[C@@H](O)[C@H](C2)N1C : 11.2

Looking up COc1c(C)cc2c(c1O)[C@@H]1[C@@H]3[C@@H]4SC[C@]5(N[C@H](CO)Cc6c5oc5ccccc65)C(=O)OC[C@@H](c5c6c(c(C)c(OC(C)=O)c54)OCO6)N3[C@@H](O)[C@H](C2)N1C , I found its Total diameter (tumor + leg) recorded as 7.0
